Listed below: IC50 values for each entry.
targetUnderTest: hFASN enzyme (full length) (Homo sapiens (Human))
experimentalDetails: Fatty Acid Synthase (FASN) Inhibition Scintillation Proximity Assay
Assay type: biochemical
conditionLabel: 3H-acetyl-CoA and malonyl-CoA substrates, SPA, mean if tested more than once, read-out: Human FASN pIC50 (converted)
// return numeric value only (unit: nM, not printed)

Below, 3 compounds whose answers are already recorded.
compound: CC1(c2ccccc2)N=C(c2ccc(-c3ccc4[nH]ccc4c3)cc2)N(C[C@@H]2CCN(C(=O)C3CC3)C2)C1=O (mixture of isomers)
targetUnderTest: hFASN enzyme (full length) (Homo sapiens (Human))
IC50 [nM]: 72.4

compound: CC1(c2ccccc2)N=C(c2ccc(-c3ccc4occc4c3)cc2)N(C[C@@H]2CCN(C(=O)C3CC3)C2)C1=O (mixture of isomers)
targetUnderTest: hFASN enzyme (full length) (Homo sapiens (Human))
IC50 [nM]: 155

compound: COCC1(C)N=C(c2ccc(-c3ccc4occc4c3)cc2)N(C[C@@H]2CCN(C(=O)C3CC3)C2)C1=O (mixture of isomers)
targetUnderTest: hFASN enzyme (full length) (Homo sapiens (Human))
IC50 [nM]: 240

Next:
-- ask What value of IC50 has been reported for the following compound? CC1(C2CC2)N=C(c2ccc(-c3ccc4occc4c3)cc2)N(C[C@@H]2CCN(C(=O)C3CC3)C2)C1=O (mixture of isomers)
-- reply 331

---

targetUnderTest: FASN Keto-reductase Domain (hFASN enzyme, full length) (Homo sapiens (Human))
experimentalDetails: Fatty Acid Synthase Keto-reductase Domain (FASN KR) Inhibition
Type: biochemical
conditionLabel: NADPH oxidation at 340 nm, ethyl acetoacetate substrate
Class assignment keyed on FASN Keto-reductase Domain pIC50, ranges label 0 = under 6, label 1 = from 6 up to 7, label 2 = 7 and over

Some entries whose results are on file:
molecule: Cn1cc(-c2ccc(-c3ccc(C4=NC(C)(C)C(=O)N4CC4CN(C(=O)C5CC5)C4)cc3)cc2)cn1 [Compound 17]
classification: label 0
--
molecule: CC1(C)N=C(c2ccc(-c3n[nH]c4ccccc34)cc2F)N(C[C@@H]2CCN(C(=O)C3CC3)C2)C1=O [Compound 57]
classification: label 0
--
molecule: CC1(C)N=C(c2ccc(-c3ccc4cc(F)ccc4c3)cc2)N(CC2CN(C(=O)C3CC3)C2)C1=O [Compound 29]
classification: label 1
--
molecule: Cn1cc(-c2ccc(-c3ccc(C4=NC(C)(C)C(=O)N4C[C@@H]4CCN(C(=O)C5(C)CC5)C4)c(F)c3)cc2)cn1 [Compound 74]
classification: label 2
--
molecule: CC1(C)N=C(c2ccc(-c3ccc4cccnc4c3)cc2)N(CC2CN(C(=O)C3CC3)C2)C1=O [Compound 24]
classification: label 1

-- ask Would you mind sorting CC1(C)N=C(c2ccc(-c3ccc4cc(F)ccc4c3)cc2F)N(C[C@@H]2CCN(C(=O)C3CC3)C2)C1=O [Compound 66] into the appropriate category?
-- reply label 2

-- ask Would you mind sorting Cn1ncc2cc(-c3ccc(C4=NC(C)(C)C(=O)N4CC4CN(C(=O)C5(O)CC5)C4)c(F)c3)ccc21 [Compound 78] into the appropriate category?
-- reply label 1

---

targetUnderTest: hFASN enzyme (full length) (Homo sapiens (Human), UniProt P49327)
Sequence (P49327 whole entry): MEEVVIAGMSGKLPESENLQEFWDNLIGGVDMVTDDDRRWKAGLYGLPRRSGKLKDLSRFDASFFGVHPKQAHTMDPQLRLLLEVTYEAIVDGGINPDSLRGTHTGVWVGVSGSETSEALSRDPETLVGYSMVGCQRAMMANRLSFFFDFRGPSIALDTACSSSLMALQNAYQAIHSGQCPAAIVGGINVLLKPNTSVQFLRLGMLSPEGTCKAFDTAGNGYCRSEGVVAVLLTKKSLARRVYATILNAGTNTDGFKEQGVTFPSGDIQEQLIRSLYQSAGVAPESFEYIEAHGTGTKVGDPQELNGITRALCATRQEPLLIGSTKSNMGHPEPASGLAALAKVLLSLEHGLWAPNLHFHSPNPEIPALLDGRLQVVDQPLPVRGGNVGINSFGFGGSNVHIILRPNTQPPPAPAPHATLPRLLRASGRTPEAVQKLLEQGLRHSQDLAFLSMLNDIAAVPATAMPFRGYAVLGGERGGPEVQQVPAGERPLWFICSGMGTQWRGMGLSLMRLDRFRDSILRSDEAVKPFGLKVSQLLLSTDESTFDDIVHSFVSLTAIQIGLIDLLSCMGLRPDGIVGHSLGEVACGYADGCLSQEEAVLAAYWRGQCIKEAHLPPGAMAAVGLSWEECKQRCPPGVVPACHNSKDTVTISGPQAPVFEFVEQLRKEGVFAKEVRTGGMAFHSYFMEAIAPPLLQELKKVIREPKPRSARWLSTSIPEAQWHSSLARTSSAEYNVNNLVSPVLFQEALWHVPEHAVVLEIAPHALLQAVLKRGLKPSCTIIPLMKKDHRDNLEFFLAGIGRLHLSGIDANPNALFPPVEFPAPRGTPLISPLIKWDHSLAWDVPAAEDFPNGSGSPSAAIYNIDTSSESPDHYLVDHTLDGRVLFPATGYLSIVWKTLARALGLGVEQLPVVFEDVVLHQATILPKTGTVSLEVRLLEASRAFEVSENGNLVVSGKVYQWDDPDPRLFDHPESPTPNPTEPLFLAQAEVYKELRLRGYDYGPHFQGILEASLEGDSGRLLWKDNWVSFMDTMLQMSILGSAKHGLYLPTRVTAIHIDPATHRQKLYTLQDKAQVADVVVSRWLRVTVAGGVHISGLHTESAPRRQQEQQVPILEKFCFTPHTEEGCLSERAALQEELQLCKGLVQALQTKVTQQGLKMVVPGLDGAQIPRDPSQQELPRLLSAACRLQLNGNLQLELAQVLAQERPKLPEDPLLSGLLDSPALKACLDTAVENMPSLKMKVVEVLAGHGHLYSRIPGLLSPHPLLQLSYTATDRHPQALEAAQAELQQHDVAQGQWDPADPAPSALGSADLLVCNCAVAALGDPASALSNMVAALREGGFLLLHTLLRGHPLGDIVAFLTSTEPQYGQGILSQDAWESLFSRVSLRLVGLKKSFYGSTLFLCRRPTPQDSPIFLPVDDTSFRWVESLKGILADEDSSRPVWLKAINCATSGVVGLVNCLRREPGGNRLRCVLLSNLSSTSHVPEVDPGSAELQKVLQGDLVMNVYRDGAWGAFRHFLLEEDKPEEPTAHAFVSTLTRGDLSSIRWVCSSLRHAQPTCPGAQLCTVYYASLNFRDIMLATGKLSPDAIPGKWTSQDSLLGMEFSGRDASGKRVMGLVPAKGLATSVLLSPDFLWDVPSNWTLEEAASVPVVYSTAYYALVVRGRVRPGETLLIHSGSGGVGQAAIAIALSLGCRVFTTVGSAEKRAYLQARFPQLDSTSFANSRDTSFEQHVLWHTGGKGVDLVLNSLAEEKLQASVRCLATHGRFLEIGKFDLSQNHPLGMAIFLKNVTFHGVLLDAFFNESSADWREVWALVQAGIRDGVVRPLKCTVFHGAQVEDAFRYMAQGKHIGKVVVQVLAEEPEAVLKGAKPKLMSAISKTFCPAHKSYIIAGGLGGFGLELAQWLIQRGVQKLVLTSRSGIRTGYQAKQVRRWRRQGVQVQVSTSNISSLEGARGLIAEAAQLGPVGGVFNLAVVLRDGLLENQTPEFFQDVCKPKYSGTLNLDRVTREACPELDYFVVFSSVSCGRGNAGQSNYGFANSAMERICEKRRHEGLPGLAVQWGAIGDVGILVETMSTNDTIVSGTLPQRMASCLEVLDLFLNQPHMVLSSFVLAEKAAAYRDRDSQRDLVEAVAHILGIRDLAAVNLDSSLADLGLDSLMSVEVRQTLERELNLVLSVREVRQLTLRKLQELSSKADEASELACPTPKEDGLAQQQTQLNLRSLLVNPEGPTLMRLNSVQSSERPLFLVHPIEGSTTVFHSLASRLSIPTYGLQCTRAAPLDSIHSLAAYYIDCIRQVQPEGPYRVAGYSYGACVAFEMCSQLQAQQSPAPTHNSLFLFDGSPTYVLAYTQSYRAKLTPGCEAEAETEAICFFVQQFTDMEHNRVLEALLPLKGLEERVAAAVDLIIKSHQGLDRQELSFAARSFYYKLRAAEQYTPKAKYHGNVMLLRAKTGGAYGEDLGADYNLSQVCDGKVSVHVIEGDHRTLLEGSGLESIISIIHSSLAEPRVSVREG
experimentalDetails: Fatty Acid Synthase (FASN) Inhibition Scintillation Proximity Assay
Format: biochemical
conditionLabel: 3H-acetyl-CoA and malonyl-CoA substrates, SPA, mean if tested more than once
readoutType: Human FASN pIC50
Give only the figure.

Below, 3 compounds whose answers are already recorded.
recordSmiles: CC1(C)N=C(c2ccc(-c3cnc4ccccc4c3)cc2)N(C[C@@H]2CCN(C(=O)C3CC3)C2)C1=O
Human FASN pIC50: 6.15
--
recordSmiles: CC1(C)N=C(c2ccc(-c3ccc4cc(F)ccc4c3)cc2)N(CC2CN(C(=O)C3CC3)C2)C1=O
Human FASN pIC50: 7.02
--
recordSmiles: Cn1ncc2cc(-c3ccc(C4=NC(C)(C)C(=O)N4C[C@@H]4CCN(C(=O)C5CC5)C4)cc3)ccc21
Human FASN pIC50: 6.85

Next:
-- ask So what Human FASN pIC50 did `Cc1cc(-c2ccc3c(c2)ncn3C)ccc1C1=NC(C)(C)C(=O)N1C[C@@H]1CCN(C(=O)C2(O)CC2)C1` get with hFASN enzyme (full length) (Homo sapiens (Human), UniProt P49327)?
-- reply 7.04
